- TEST TARGET: human recombinant adrenergic α2B receptor (Homo sapiens, UniProt P18089)
- Construct: expressed in transfected cells; host or cells: Chinese hamster ovary (CHO-K1) cells
- Sequence (P18089 whole entry): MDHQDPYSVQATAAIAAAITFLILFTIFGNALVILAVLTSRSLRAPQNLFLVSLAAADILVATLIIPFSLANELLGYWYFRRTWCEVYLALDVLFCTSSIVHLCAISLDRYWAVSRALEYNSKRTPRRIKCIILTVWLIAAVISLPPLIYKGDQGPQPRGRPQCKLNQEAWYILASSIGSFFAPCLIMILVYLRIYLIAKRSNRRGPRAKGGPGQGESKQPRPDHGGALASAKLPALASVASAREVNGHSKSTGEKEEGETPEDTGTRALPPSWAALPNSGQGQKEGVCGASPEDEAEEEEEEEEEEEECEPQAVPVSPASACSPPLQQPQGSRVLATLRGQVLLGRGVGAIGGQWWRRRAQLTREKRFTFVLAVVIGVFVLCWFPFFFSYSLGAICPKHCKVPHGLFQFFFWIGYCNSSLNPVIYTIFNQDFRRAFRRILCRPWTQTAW
- TEST: Adrenergic α2B radioligand binding ([3H]Rauwolscine)
- COND: percent inhibition of specific binding; compound at 1 μM; read-out: Inhibition of ligand binding, Adrenergic α2B
QUANTITY KIND: inhibition at 1 µM (%)
# output: bare number, implied unit %

Answered examples (5):
COMPOUND: CN1CCc2c(c3cc(Cl)ccc3n2CC(O)(c2ccc(F)cc2)C2CC2)C1 (stereo not drawn)
inhibition at 1 µM, %: 99
//
COMPOUND: CN1CCc2c(c3cc(Cl)ccc3n2CC(C)(O)c2ccc(F)cc2)C1 (stereo not drawn)
inhibition at 1 µM, %: 109
//
COMPOUND: CCCC/C(=C\n1c2c(c3cc(Cl)ccc31)CN(C)CC2)c1ccc(F)cc1
inhibition at 1 µM, %: 103
//
COMPOUND: CN1CCc2c(c3cc(Cl)ccc3n2CC(C)(O)c2ccncc2)C1 (stereo not drawn)
inhibition at 1 µM, %: 101
//
COMPOUND: C=C(Cn1c2c(c3cc(Cl)ccc31)CN(C)CC2)c1ccc(OC)c(F)c1
inhibition at 1 µM, %: 106

// Cc1ccc(C(O)Cn2c3c(c4ccccc42)CN(C)CC3)cc1 (racemic) : inhibition at 1 µM value = 114

# inhibition at 1 µM of `CN1CCc2c(c3cc(Cl)ccc3n2C/C(=C/CCO)c2ccc(F)cc2)C1` = 102

# inhibition at 1 µM of `CN1CCc2c(c3cc(Cl)ccc3n2C/C(=C\CCO)c2ccc(F)cc2)C1` = 105

# compound `CN1CCc2c(c3cc(Cl)ccc3n2C/C=C/c2ccc(F)cc2)C1` ; its inhibition at 1 µM = 116

Reported inhibition at 1 µM of `C/C(=C\n1c2c(c3cc(Cl)ccc31)CN(C)CC2)c1ccccc1` : 114

Just so you know, measured inhibition at 1 µM for `CNC(=O)C/C(=C\n1c2c(c3cc(C)ccc31)CN(C)CC2)c1ccc(F)cc1` came out at 80

Lookup result for Cc1ccc2c(c1)c1c(n2CC(O)c2cccnc2)CCN(C)C1 (stereo not drawn) ; measured inhibition at 1 µM: 103

Lookup result for COc1ccc(C(C)(O)Cn2c3c(c4cc(C)ccc42)CN(C)CC3)cc1F (stereo not drawn) ; measured inhibition at 1 µM: 98

Lookup result for `C/C(=C\n1c2c(c3cc(C)ccc31)CN(C)CC2)c1ccc(F)cc1` ; measured inhibition at 1 µM: 121
